# systemUnderTest: CSNK2A2 (human)
# testName: KINOMEscan competition binding
# testConditions: compound 10.0 µM
Here the recorded kinase still bound, per cent of control is given for each entry.
API: value field is a number in %; no unit string.

A selection of reference data follows.
>  <structureAsSmiles>
CCN1CCN(C(=O)Cc2ccc(Nc3ncc(F)c(Nc4ccc(C(=O)Nc5ccccc5Cl)cc4)n3)cc2)CC1

>  <scaleUnit>
%

>  <kinase still bound, per cent of control>
7.8

$$$$
>  <structureAsSmiles>
NC(=O)Nc1cc(-c2cccc(F)c2)sc1C(=O)N[C@@H]1CCCNC1

>  <scaleUnit>
%

>  <kinase still bound, per cent of control>
5.9

$$$$
>  <structureAsSmiles>
O=C1NC(=O)/C(=C/c2ccc3nccc(-c4ccncc4)c3c2)S1

>  <scaleUnit>
%

>  <kinase still bound, per cent of control>
1.2

$$$$

The compound listed as `CCN(CC)CCCCNc1ncc2cc(-c3cc(OC)cc(OC)c3)c(NC(=O)NC(C)(C)C)nc2n1` has a reported kinase still bound, per cent of control of 100

The compound listed as `COc1cc(C(=O)N2CCC(N3CCN(C)CC3)CC2)ccc1Nc1ncc2c(n1)N(C)c1ccccc1C(=O)N2C` has a reported kinase still bound, per cent of control of 93

The compound listed as `Cc1n[nH]c2ccc(-c3cncc(OC[C@@H](N)Cc4c[nH]c5ccccc45)c3)cc12` has a reported kinase still bound, per cent of control of 13

* * *

# systemUnderTest: PLK1 (human)
# testName: KINOMEscan competition binding
# testConditions: compound 10.0 µM
Here the recorded kinase still bound, per cent of control is given for each entry.
API: value field is a number in %; no unit string.

A selection of reference data follows.
>  <structureAsSmiles>
COCC(=O)NC/C=C/c1ccc2ncnc(Nc3ccc(Oc4ccc(C)nc4)c(C)c3)c2c1

>  <scaleUnit>
%

>  <kinase still bound, per cent of control>
81

$$$$
>  <structureAsSmiles>
COc1cc(C(=O)N2CCC(N3CCN(C)CC3)CC2)ccc1Nc1ncc2c(n1)N(C)c1ccccc1C(=O)N2C

>  <scaleUnit>
%

>  <kinase still bound, per cent of control>
0.7

$$$$
>  <structureAsSmiles>
CS(=O)(=O)N1CCN(Cc2cc3nc(-c4cccc5[nH]ncc45)nc(N4CCOCC4)c3s2)CC1

>  <scaleUnit>
%

>  <kinase still bound, per cent of control>
100

$$$$
>  <structureAsSmiles>
COc1ccc(N(C(=O)Oc2c(C)cccc2C)c2ccnc(Nc3ccc(N4CCN(C)CC4)cc3)n2)c(OC)c1

>  <scaleUnit>
%

>  <kinase still bound, per cent of control>
100

$$$$

The molecule listed as `C=CC(=O)Nc1ccc(CN(C(=O)Nc2c(Cl)c(OC)cc(OC)c2Cl)c2cc(Nc3ccc(N4CCN(C)CC4)cc3)ncn2)cc1` has a reported kinase still bound, per cent of control of 100

The molecule listed as `CN(C)C/C=C/C(=O)Nc1ccc(C(=O)Nc2cccc(Nc3nccc(-c4cccnc4)n3)c2)cc1` has a reported kinase still bound, per cent of control of 100

* * *

Here the recorded kinase still bound, per cent of control is given for each entry.
# systemUnderTest: STK38 (human) (UniProt Q15208)
# Sequence (Q15208 whole entry, looked up): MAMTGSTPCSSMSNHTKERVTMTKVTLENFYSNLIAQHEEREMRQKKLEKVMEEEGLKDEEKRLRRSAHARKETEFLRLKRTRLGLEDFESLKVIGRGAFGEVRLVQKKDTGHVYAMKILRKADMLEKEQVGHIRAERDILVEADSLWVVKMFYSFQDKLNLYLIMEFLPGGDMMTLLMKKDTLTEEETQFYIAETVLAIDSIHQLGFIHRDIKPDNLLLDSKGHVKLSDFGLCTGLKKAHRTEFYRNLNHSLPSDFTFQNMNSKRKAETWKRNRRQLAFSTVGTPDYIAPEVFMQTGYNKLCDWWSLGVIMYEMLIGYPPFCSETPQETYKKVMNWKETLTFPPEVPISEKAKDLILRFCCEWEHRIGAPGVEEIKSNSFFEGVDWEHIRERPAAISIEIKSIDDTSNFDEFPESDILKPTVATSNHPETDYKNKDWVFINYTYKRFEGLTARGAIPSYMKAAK
# testName: KINOMEscan competition binding
# testConditions: compound 10.0 µM
API: value field is a number in %; no unit string.

>  <structureAsSmiles>
NC(=O)Nc1cc(-c2cccc(F)c2)sc1C(=O)N[C@@H]1CCCNC1

>  <kinase still bound, per cent of control, %>
4

$$$$

The compound listed as `COc1ccc(N(C(=O)Oc2c(C)cccc2C)c2ccnc(Nc3ccc(N4CCN(C)CC4)cc3)n2)c(OC)c1` has a reported kinase still bound, per cent of control of 100

The compound listed as `COc1cc2ncn(-c3cc(OCc4ccccc4C(F)(F)F)c(C(N)=O)s3)c2cc1OC` has a reported kinase still bound, per cent of control of 94

The compound listed as `C=CC(=O)Nc1cc(-n2c(=O)ccc3cnc4ccc(-c5cn[nH]c5)cc4c32)ccc1C` has a reported kinase still bound, per cent of control of 87

* * *

# systemUnderTest: AXL (human) (UniProt P30530)
# Sequence (P30530 whole entry, looked up): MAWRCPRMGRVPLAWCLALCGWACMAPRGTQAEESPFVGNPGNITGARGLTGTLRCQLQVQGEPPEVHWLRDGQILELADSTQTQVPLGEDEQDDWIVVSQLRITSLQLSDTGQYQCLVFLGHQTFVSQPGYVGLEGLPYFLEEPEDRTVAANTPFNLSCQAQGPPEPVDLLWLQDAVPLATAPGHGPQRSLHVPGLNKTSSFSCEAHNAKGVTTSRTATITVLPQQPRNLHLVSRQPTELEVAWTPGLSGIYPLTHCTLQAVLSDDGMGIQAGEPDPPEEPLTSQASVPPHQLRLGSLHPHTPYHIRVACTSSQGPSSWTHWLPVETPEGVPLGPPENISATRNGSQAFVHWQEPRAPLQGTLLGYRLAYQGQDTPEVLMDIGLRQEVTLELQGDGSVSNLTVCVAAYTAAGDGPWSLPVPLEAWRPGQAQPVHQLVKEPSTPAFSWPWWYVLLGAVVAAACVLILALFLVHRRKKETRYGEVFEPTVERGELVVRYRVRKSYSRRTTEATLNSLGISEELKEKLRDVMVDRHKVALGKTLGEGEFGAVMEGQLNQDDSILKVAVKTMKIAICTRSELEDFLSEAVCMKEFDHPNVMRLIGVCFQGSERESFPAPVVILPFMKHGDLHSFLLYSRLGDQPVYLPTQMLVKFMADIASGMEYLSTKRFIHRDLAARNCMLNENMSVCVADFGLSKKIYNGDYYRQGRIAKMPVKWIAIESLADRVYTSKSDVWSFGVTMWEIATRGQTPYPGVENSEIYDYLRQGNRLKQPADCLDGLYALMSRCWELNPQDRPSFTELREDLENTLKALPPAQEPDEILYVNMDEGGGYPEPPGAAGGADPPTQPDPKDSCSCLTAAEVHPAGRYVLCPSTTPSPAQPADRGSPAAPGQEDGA
# testName: KINOMEscan competition binding
# testConditions: compound 10.0 µM
Here the recorded kinase still bound, per cent of control is given for each entry.
API: value field is a number in %; no unit string.

>  <structureAsSmiles>
COc1cc2ncnc(-n3nc(-c4ccccn4)nc3N)c2cc1OC

>  <systemUnderTest>
AXL (human) (UniProt P30530)

>  <readoutKind>
kinase still bound, per cent of control

>  <scaleUnit>
%

>  <valueObserved>
6

$$$$
>  <structureAsSmiles>
O=c1cc(N2CCOCC2)oc2c(-c3cccc4c3sc3ccccc34)cccc12

>  <systemUnderTest>
AXL (human) (UniProt P30530)

>  <readoutKind>
kinase still bound, per cent of control

>  <scaleUnit>
%

>  <valueObserved>
100

$$$$
>  <structureAsSmiles>
N#CCNC(=O)c1ccc(-c2ccnc(Nc3ccc(N4CCOCC4)cc3)n2)cc1

>  <systemUnderTest>
AXL (human) (UniProt P30530)

>  <readoutKind>
kinase still bound, per cent of control

>  <scaleUnit>
%

>  <valueObserved>
57

$$$$
>  <structureAsSmiles>
CCN1CCN(C(=O)Cc2ccc(Nc3ncc(F)c(Nc4ccc(C(=O)Nc5ccccc5Cl)cc4)n3)cc2)CC1

>  <systemUnderTest>
AXL (human) (UniProt P30530)

>  <readoutKind>
kinase still bound, per cent of control

>  <scaleUnit>
%

>  <valueObserved>
2.1

$$$$

The compound listed as `Cc1n[nH]c2ccc(-c3cncc(OC[C@@H](N)Cc4c[nH]c5ccccc45)c3)cc12` has a reported kinase still bound, per cent of control of 14

The compound listed as `C=CC(=O)Nc1cc(-n2c(=O)ccc3cnc4ccc(-c5cn[nH]c5)cc4c32)ccc1C` has a reported kinase still bound, per cent of control of 100

* * *

Here the recorded kinase still bound, per cent of control is given for each entry.
# systemUnderTest: MERTK (human)
# testName: KINOMEscan competition binding
# testConditions: compound 10.0 µM
Hey, just the number and the unit after it is fine.

>  <structureAsSmiles>
O=C(Nc1cccc(Nc2ncc(Br)c(NCCc3cnc[nH]3)n2)c1)N1CCCC1

>  <valueObserved>
0.5%

$$$$
>  <structureAsSmiles>
COc1cc2ncn(-c3cc(OCc4ccccc4C(F)(F)F)c(C(N)=O)s3)c2cc1OC

>  <valueObserved>
7%

$$$$
>  <structureAsSmiles>
COc1cc(C(=O)N2CCC(N3CCN(C)CC3)CC2)ccc1Nc1ncc2c(n1)N(C)c1ccccc1C(=O)N2C

>  <valueObserved>
100%

$$$$
>  <structureAsSmiles>
CCN(CC)CCCCNc1ncc2c(n1)N(C)C(=O)N(c1c(Cl)c(OC)cc(OC)c1Cl)C2

>  <valueObserved>
100%

$$$$
>  <structureAsSmiles>
COc1cc(N2CCN(C)CC2)ccc1Nc1ncc2c(n1)N(C)c1ccccc1C(=O)N2C

>  <valueObserved>
100%

$$$$

The compound listed as `CCN(CC)CCCCNc1ncc2cc(-c3cc(OC)cc(OC)c3)c(NC(=O)NC(C)(C)C)nc2n1` has a reported kinase still bound, per cent of control of 100%

The compound listed as `O=C1NC(=O)/C(=C/c2ccc3nccc(-c4ccncc4)c3c2)S1` has a reported kinase still bound, per cent of control of 14%

The compound listed as `COc1ccc(N(C(=O)Oc2c(C)cccc2C)c2ccnc(Nc3ccc(N4CCN(C)CC4)cc3)n2)c(OC)c1` has a reported kinase still bound, per cent of control of 20%

The compound listed as `CCN1CCN(C(=O)Cc2ccc(Nc3ncc(F)c(Nc4ccc(C(=O)Nc5ccccc5Cl)cc4)n3)cc2)CC1` has a reported kinase still bound, per cent of control of 2%

The compound listed as `CNC(=O)c1ccc(Nc2cc(Nc3ccccc3S(=O)(=O)C(C)C)c3cc[nH]c3n2)nc1` has a reported kinase still bound, per cent of control of 0.25%

The compound listed as `COc1cc2ncnc(-n3nc(-c4ccccn4)nc3N)c2cc1OC` has a reported kinase still bound, per cent of control of 29%

* * *

# systemUnderTest: MTOR (human) (UniProt P42345)
# testName: KINOMEscan competition binding
# testConditions: compound 10.0 µM
Here the recorded kinase still bound, per cent of control is given for each entry.

A selection of reference data follows.
>  <structureAsSmiles>
COc1cc2ncnc(-n3nc(-c4ccccn4)nc3N)c2cc1OC

>  <readoutKind>
kinase still bound, per cent of control

>  <valueObserved>
5%

$$$$
>  <structureAsSmiles>
N#CCNC(=O)c1ccc(-c2ccnc(Nc3ccc(N4CCOCC4)cc3)n2)cc1

>  <readoutKind>
kinase still bound, per cent of control

>  <valueObserved>
100%

$$$$
>  <structureAsSmiles>
COc1cc2ncn(-c3cc(OCc4ccccc4C(F)(F)F)c(C(N)=O)s3)c2cc1OC

>  <readoutKind>
kinase still bound, per cent of control

>  <valueObserved>
78%

$$$$

Now consider the entry below.
Response field kinase still bound, per cent of control (MTOR (human) (UniProt P42345)) for item `C=CC(=O)Nc1cc(-n2c(=O)ccc3cnc4ccc(-c5cn[nH]c5)cc4c32)ccc1C` : 0%
